We begin with a simple list: items and their reported TGI.
Test system: MOLT-4 leukemia
Experimental Details: NCI tumour cell line growth inhibition, 48 h
I only need the number, in µM, no unit after it.

# count of solved cases: 2
CN(C)c1ccc(Nc2c3ccccc3nc3ccccc23)cc1 = 5.18
COc1cc2c3c(n(CCCN)c(=O)c2cc1OC)-c1ccc([N+](=O)[O-])cc1C3=O = 16.2

Proceeding to the next molecule to report its TGI.
Data request: Recall and state the measured TGI for COc1cc(/C=C2\CC/C(=C\c3cc(OC)c(O)c(OC)c3)C2=O)cc(OC)c1O .
Data returned: 8

====

System: NCI-H522 lung
Experimental Details: NCI tumour cell line growth inhibition, 48 h
The threshold is inclusive: TGI of exactly 5 µM counts as class 1; values below receive class 0.

Below are worked cases with known answers.
COc1cc2ccc(C(=O)NCCCNC(=O)c3ccc4cc(OC)c(OC)cc4c3)cc2cc1OC = class 1
Nc1cc2c(c3ccccc13)C(CCl)CN2C(=O)c1cc2cc(NC(=O)Nc3ccc4[nH]c(C(=O)N5CC(CCl)c6c5cc(N)c5ccccc65)cc4c3)ccc2[nH]1 (stereo not drawn) = class 0

Data request: Assess whether reported TGI for O=C(CCN1CCOCC1)/C(=C/c1ccccc1)c1ccccc1 sits at 5 µM or higher.
Data returned: class 0

Data request: Assess whether reported TGI for O=C1NC(=O)c2ccccc2/C1=C/c1ccc2c(c1)OCO2 sits at 5 µM or higher.
Data returned: class 1

Data request: Assess whether reported TGI for CN1C(=O)c2ccc3ccccc3c2C1=O sits at 5 µM or higher.
Data returned: class 1

Data request: Assess whether reported TGI for O=C1C2C(C(=O)N1c1ccccc1)C1c3ccccc3C2C2C(=O)N(c3ccccc3)C(=O)C21 (stereo not drawn) sits at 5 µM or higher.
Data returned: class 1

Data request: Assess whether reported TGI for COC(C)(C)[C@@H](O)[C@H](O)C[C@H](C)C1=C2CC[C@@H]3[C@@]4(C)CC[C@@H](OC(C)=O)C(C)(C)[C@@H]4C[C@@H](OC4OC(COC(C)=O)C(O)C(O)C4O)[C@@]3(C)[C@]2(C)CC1 (stereo partly drawn) sits at 5 µM or higher.
Data returned: class 1

Data request: Assess whether reported TGI for COc1ccc2c(c1)nc(NNC(=O)c1cnccn1)c1cccn12 sits at 5 µM or higher.
Data returned: class 1
